Where do these numbers come from? They come from the Human Domainome abundance scans (Beltran et al. 2025).

B1: POU domain, class 3, transcription factor 4, residues 280 to 335; numbered along this chain, P49335 (parent)
chain: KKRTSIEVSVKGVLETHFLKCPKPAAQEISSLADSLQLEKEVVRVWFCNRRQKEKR

variants of: B1; test: abundance fitness (aPCA) (normalised: wild type 0, dead -1); higher = more abundant; growth selection in yeast, the domain comes from the species named; details: Homo sapiens
Measurement kind: abundance fitness
Give your answer as a number; write no unit.

Here are 5 variants together with their reported answers.
Mutation list: V8R
Result: 0.362
--
Mutation list: C21H
Result: -0.533
--
Mutation list: E41G
Result: -0.709
--
Mutation list: E7W
Result: -0.014
--
Mutation list: R56M
Result: 0.123

For L14M the variant record lists abundance fitness as -0.623

For D34Y the variant record lists abundance fitness as -0.793

For L19I the variant record lists abundance fitness as -0.441

For W46V the variant record lists abundance fitness as -0.82

For S31T the variant record lists abundance fitness as 0.035
